- Measured target: Anoctamin-1 (Mus musculus) (UniProt Q8BHY3)
- Sequence (Q8BHY3 whole entry, looked up): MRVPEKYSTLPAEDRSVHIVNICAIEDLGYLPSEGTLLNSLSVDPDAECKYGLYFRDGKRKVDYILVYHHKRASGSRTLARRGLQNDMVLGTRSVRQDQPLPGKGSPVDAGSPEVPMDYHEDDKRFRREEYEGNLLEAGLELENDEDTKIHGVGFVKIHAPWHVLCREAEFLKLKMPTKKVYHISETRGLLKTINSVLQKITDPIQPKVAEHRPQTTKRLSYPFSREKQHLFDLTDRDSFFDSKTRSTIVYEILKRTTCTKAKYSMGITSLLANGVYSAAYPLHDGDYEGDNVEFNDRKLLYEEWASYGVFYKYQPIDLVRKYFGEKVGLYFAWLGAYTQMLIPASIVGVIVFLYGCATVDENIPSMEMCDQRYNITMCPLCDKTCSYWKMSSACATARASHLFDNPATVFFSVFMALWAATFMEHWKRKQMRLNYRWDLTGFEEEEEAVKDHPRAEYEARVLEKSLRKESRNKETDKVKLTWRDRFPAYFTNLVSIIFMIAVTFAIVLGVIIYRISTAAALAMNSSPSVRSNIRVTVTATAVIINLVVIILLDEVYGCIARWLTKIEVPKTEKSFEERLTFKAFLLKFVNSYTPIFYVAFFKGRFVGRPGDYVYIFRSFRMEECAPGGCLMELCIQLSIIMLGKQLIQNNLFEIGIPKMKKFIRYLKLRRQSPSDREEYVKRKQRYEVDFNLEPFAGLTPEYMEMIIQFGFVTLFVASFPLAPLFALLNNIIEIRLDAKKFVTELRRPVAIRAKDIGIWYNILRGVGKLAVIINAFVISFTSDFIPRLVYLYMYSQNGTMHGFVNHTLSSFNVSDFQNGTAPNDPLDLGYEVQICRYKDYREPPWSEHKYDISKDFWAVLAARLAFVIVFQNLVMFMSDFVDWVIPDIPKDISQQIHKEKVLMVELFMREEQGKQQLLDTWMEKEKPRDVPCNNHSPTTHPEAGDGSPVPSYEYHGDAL
- Experimental protocol: mouse ANO1 channel activation – cell-based, HTS, primary screen (AID 623877)
- Condition info: HEK293 TMEM16A/YFP-H148Q/I152L, iodide quench fluorescence, at 10 µM
In all, about 340,000 compounds went through this assay and about 1,000 (0.29%) were called active.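 How the source made its calls: active means fluorescence-ratio B-score plate-corrected deviation score at least 3 library SD below zero, with starting fluorescence score within 5 deviations; inactive means the rest.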 This excerpt belongs to a sample that is enriched for actives.
Select the correct class. Options are true (1) for active, false (0) for inactive and nothing else.

Cc1ccc(CN2CCN(Cc3ccccc3-c3ccco3)CC2CCO)o1 (centres undefined) :: false (0)
O=C(CN1CCCSc2ccccc21)N1CCN(S(=O)(=O)c2ccccc2)CC1 :: false (0)
C=C(Cl)COC(=O)C1C2C=CC(C2)C1C(=O)O (centres undefined) :: false (0)

Please find the next compound below.
Data request: So what was the verdict on CC(C)[C@H](NC(=O)OCc1ccccc1)C(=O)OCc1ccccc1 in this test?
Data returned: false (0)
